- Tested on: NCI-H23 lung
- PROTOCOL DESCRIPTION: NCI-60 one-dose screen, 48 h
- EXPERIMENTAL CONTEXT: 10 µM unless noted
Compounds without any hit were thinned out: in the full panel of roughly 83,000, 20% have a hit. Activity calls are given as the source filed them. Rule for the calls: active = growth percent below 10; inactive = the rest.
Valid outcomes are listed here; reply with one: label 1 for active, label 0 for inactive

// query Outcome? COc1cc([C@@H]2NC(=O)NC(C)=C2C(=O)Nc2nc(-c3ccc(Cl)cc3)cs2)ccc1O
// result label 0

// query Identify the outcome logged in this assay for the molecule shown: COC(=O)/C(CCC=C(C)C)=C1\[C@@H](OC(C)=O)C[C@@]2(C)[C@H]1CC(=O)N[C@H]1[C@@]3(C)CCNC(=O)[C@@H](C)[C@@H]3CC[C@@]12C
// result label 0

// query Call for entry COc1ccc(CN2CCCC(C(=O)c3ccc(C(F)(F)F)cc3)C2)c(O)c1 (stereo not drawn) :
// result label 0

// query So what was the verdict on Cc1ccc(S(=O)(=O)c2c(COC(=O)c3cccc(C)c3)c(-c3ccccc3)nn2C)cc1 in this test?
// result label 0

// query What did the test return for NCCOc1ccccc1/C=C1\c2ccccc2-c2ccc([N+](=O)[O-])cc21 ?
// result label 1

// query Returns: the outcome recorded for O=C(O)CCC(=O)c1ccc(C2CCCCCC2)cc1 in this assay.
// result label 0

// query State the result this test recorded for O=C1/C(=C/c2cccc(O)c2)COc2ccc(O)cc21 .
// result label 0

// query Write down the call the test reported for this molecule. Item: COc1cc(C2CC(c3ccc(Nc4nc(NCCO)nc(N5CCOCC5)n4)cc3)=NN2c2cc(Cl)cc(Cl)c2)cc(OC)c1OC (stereo not drawn)
// result label 0

// query # fetch the recorded call for O=C1c2cc(I)ccc2Oc2cc([N+](=O)[O-])ccc2N1c1ccc(Cl)cc1F here
// result label 0

// query Hello, I am checking results. What call was entered for CN1CCN(Cc2ccc(C(=O)Nc3cncc(C#Cc4cnc(N)c5ccccc45)c3)cc2C(F)(F)F)CC1 ?
// result label 1

// query Write down the call the test reported for this molecule. Item: Cc1ccc(NC2=CC(=O)C(=O)c3ccccc32)c(C)c1
// result label 1

// query Record lookup: outcome of this test for COc1cc(-c2c3c(c(Br)n2Cc2ccccc2)-c2nc(N)sc2CC3)cc(OC)c1OC ?
// result label 0

// query # outcome recorded in this test, key = O=C1c2ccc3c4c(ccc(c24)C(=O)N1CCCCO)C(=O)N(CCCCO)C3=O
// result label 0

// query So what was the verdict on COC(=O)/C(CCC=C(C)C)=C1\[C@@H](OC(C)=O)C[C@@]2(C)[C@H]1C[C@@H](O)[C@H]1[C@@]3(C)CC[C@H](NC(=O)c4cnccn4)[C@@H](C)[C@@H]3CC[C@@]12C in this test?
// result label 0

// query Tell me the assay call for O=C(/C=C/c1ccc(C(F)(F)F)cc1)c1ccc(Nc2nc(NCCO)nc(Nc3ccc(Cl)cc3)n2)cc1 please.
// result label 0

// query What was the test verdict on CC(=O)O[C@@H]1/C=C/C(=O)N[C@@H](C)CCC/C=C/[C@@H]2CCC[C@H]21 ?
// result label 0

// query Short answer needed: outcome of this test for COc1ccccc1N1C(=N)S/C(=C\c2ccc(OCc3ccccc3F)cc2)C1=O ?
// result label 0

// query Field: outcome | Entry: O=S(=O)(c1ccccc1)n1cc2c(c1-c1ccccc1)CCc1sc(Nc3ccccc3)nc1-2
// result label 0

----------
- Test system: A498 renal
- PROTOCOL DESCRIPTION: NCI-60 one-dose screen, 48 h (100 = growth as untreated, 0 = no growth, -100 = all killed)
- EXPERIMENTAL CONTEXT: 10 µM unless noted
This is part of a sample that, as a whole, favours compounds with a hit. Of some 83,000 tested, about 20% had one in any assay.
// assign Condition met if growth falls strictly below 70%, else Condition not met (ties count as Condition not met)

// query Does this compound meet the criterion growth < 70%? CCOC(=O)c1ccc2[nH]c(-c3ccccc3)cc(=O)c2c1
// result Condition not met

// query I'd appreciate it if you could check whether O=c1c2cccc(F)c2sc2c(N3CCNCC3)nc3ccccc3c12 has growth smaller than 70%.
// result Condition met

// query Say whether its growth is strictly beneath 70%. Entry: CC1=CCC(OC(=O)C(C)(C)CCC(O)(C(=O)OC2(C(C)C)CCC3(C)OC3C2)C(C)C)(C(C)C)CC1 (centres undefined)
// result Condition met

// query Threshold test, growth < 70%: COC(=O)C1(C)CCC[C@]2(C)[C@H]3C[C@H]4C(C(C)C)=C[C@]3(CC[C@@H]12)[C@H]1[C@@H]4[C@@H](OCC#CCN2CCOCC2)CC[C@@H]1OCC#CCN1CCOCC1 (some centres undefined)
// result Condition not met

// query Please determine if O=C(O)CCCN1C(=O)C2C3CCC(C3)C2C1=O (centres undefined) is below 70% in terms of growth.
// result Condition not met

// query Criterion: growth strictly below 70%. Is it met by CCOC(=O)C1(C(=O)OCC)N=C(c2ccccc2)C=C1c1ccccc1 ?
// result Condition not met

// query is_below(growth, 70%) for COc1cc(C2C3=C(COC3=O)N(CCO)c3cc4c(cc32)CCC4)cc(OC)c1O (centres undefined) ?
// result Condition met

// query Just wondering, is growth of CNCCNc1nc2ccccc2c2c(=O)c3cc(OC)ccc3sc12 below 70%?
// result Condition met

// query Quick check: growth of O=C1c2ccccc2C(=O)c2c1ccc1[nH]c(CCl)nc21 under 70%?
// result Condition met

// query Take the compound CCOc1ccc2nc(C)cc(Nc3ccc(Br)cc3)c2c1 and say whether its growth is less than 70%.
// result Condition not met

// query Please let me know if COc1ccc(C2=Nn3c(NN)nnc3SC2)cc1 shows growth below 70%.
// result Condition not met

// query Determine whether this compound shows growth lower than 70% (ties excluded): COc1cc(/C=C/C(=O)c2c(C)nc3ccccc3c2/C=C/c2ccccc2)cc(OC)c1OC
// result Condition met

// query growth under 70%? Item: O=c1cc(-c2ccccc2)oc2cc(OCc3cn(Cc4ccc(F)cc4)nn3)cc(OCc3cn(Cc4ccc(F)cc4)nn3)c12
// result Condition met

----------
- Test system: SF-539 CNS
- PROTOCOL DESCRIPTION: NCI-60 one-dose screen, 48 h
- EXPERIMENTAL CONTEXT: 10 µM unless noted
About 83,000 compounds went through this panel and 20% of them were active in at least one assay; those are over-represented in the sample as a whole. The source made the active and inactive calls. How the source made its calls: active means growth percent below 10; inactive means the rest.
Tick one outcome: active, inactive

// query Query: recorded result category for c1ccc(-c2ccc(-c3nc4ccccc4[nH]3)cc2)cc1 in this test
// result inactive

// query Recorded call for CC(=S)NC(=O)C(=O)/C=C1/NC(=O)C(=O)S1 ?
// result inactive

// query What is the recorded call for this compound in the test? CN1C(=O)N(C)C2Nn3c(s/c(=C4\C(=O)N(CCc5ccccc5)c5ccccc54)c3=O)=NC21 (centres undefined)
// result inactive

// query Give the logged outcome of this assay for the following compound: COc1cccc(/C=C/C(=O)c2c(C)nc3ccccc3c2/C=C/c2ccccc2)c1OC
// result inactive

// query Could you please tell me the result logged for COc1cc(C(=O)Nc2ccc(-c3nc4ccccc4[nH]3)cc2)cc(OC)c1OC in this assay?
// result inactive

// query Called result for COc1cccc2c1C=C1CCCCC3=Cc4c(OC)cccc4OC13O2
// result inactive

// query # lookup: test call for CC(=O)SC1CC(=O)C=C2CCC3C4CCC(=O)OC4(C)CCC3C21C (centres undefined)
// result inactive

// query Look up the recorded call for COc1cc2nc(NC3CCC3)nc(NC3CCN(C(C)C)CC3)c2cc1OC in this test.
// result active

// query How did this test come out for CCN1C(=O)N(c2ccccc2)C2Nn3c(s/c(=C4\C(=O)N(C(C)C)c5ccccc54)c3=O)=NC21 (centres undefined) ?
// result inactive

// query Hi, sorry to bother you, what did the test record for CCOC(=O)c1sc(-c2ccc(OS(=O)(=O)C[C@]34CCC(CC3=O)C4(C)C)c(C=O)c2)nc1C ?
// result inactive

// query Please state the recorded outcome for this compound: Nc1ccc(C2c3ccccc3Oc3ccccc32)cc1
// result inactive

// query Record lookup: outcome of this test for O=C(/C=C/c1ccc(Cl)cc1)c1ccc(Nc2nc(NCCO)nc(Nc3ccc(Cl)cc3)n2)cc1 ?
// result inactive

// query Returns: the outcome recorded for CCN1C(=O)N(CC)C2Nn3c(s/c(=C\c4ccccc4F)c3=O)=NC21 (centres undefined) in this assay.
// result inactive

// query What did the test return for CCN1C(=O)N(CC)C2C1NC(=S)N2/N=C/C=C/c1ccccc1OC (centres undefined) ?
// result active

// query For CC1CCCCN1CCCNC(=O)c1ccc2c(c1)sc1nc(-c3ccc(F)cc3)cn12 (centres undefined) , which call appears in the assay record?
// result inactive

// query Look up the recorded call for CCCSC1=NC2C(N(CC)C(=O)N2CC)N1/N=C/C=C/c1ccccc1[N+](=O)[O-] (centres undefined) in this test.
// result active

// query Outcome logged for Cn1c(C(=O)c2cccc3ccccc23)nc2ccccc21 in this assay:
// result active

// query For CN(C)c1ccc(/C=C/c2ccnc3c(O)cccc23)cc1 , which call appears in the assay record?
// result active

// query For COc1cc(NC(=O)CCSc2nc3ccccc3c(=O)n2Cc2ccccc2)cc(OC)c1OC , what call appears in the results of this test?
// result inactive

// query What classification did Cc1ccc(NCCNCC(O)CO)c2c(=O)c3ccccc3sc12 (centres undefined) end up with in this test?
// result inactive

// query Lab log entry: CC(C)(C)c1ccc(C2CC(=O)C3=C(C2)Nc2ccccc2N(C(=O)c2ccccc2Cl)C3c2ccc(F)cc2)cc1 (centres undefined) — outcome as called in the assay?
// result active

// query Look up the recorded call for CC(C)Cn1c2c(c(=S)[nH]c1=O)CCC2 in this test.
// result inactive

// query Please state the recorded outcome for this compound: O=C(c1ccccc1)N(C(=S)NCCc1ccc(Cl)cc1)c1ccc(Cl)cc1
// result inactive

// query Recorded test call requested for CCN(CC)c1cc(C)c2cc(NC(=O)c3cccc(OC)c3)ccc2n1
// result inactive

// query How was O=C1/C=C/[C@@H](O)[C@@H]2C[C@@H](O)C[C@H]2/C=C/CCCCO1 classified in this test?
// result inactive

// query What outcome does the record of this test show for CCn1c(SCC(=O)Nc2cc(C(F)(F)F)ccc2Cl)nc2ccccc2c1=O ?
// result inactive

// query Outcome? CCOC(=O)c1c2c(n3cccc(Cl)c13)C(=O)c1ncccc1C2=O
// result inactive

// query What did this assay record as the result for Cc1cc2c(c(C)c1Cl)C(=O)/C(=C/c1cccc([N+](=O)[O-])c1)O2 ?
// result inactive

// query # outcome recorded in this test, key = CCN1C(=O)N(CC)C2C1NN=c1s/c(=C3\C(=O)N(C(C)C)c4ccccc43)c(=O)n12 (centres undefined)
// result active

// query Outcome logged for O=S(=O)(Nc1ncccn1)c1ccc(NC2Nc3nc4ccccc4nc3S2)cc1 (centres undefined) in this assay:
// result inactive

// query Each compound tested received a call. Report the one for O=C(Nc1ccc(I)cc1F)c1cc(Br)ccc1O .
// result active

// query Query: recorded result category for CCCN1C(=O)N(CCC)C2C1NN=c1s/c(=C3\C(=O)N(C(C)C)c4ccccc43)c(=O)n12 (centres undefined) in this test
// result inactive

// query Please share the test call associated with Cn1c(/C=C(\C#N)c2ccccc2)nc2c(N3CCOCC3)nc(Cl)nc21 .
// result active

// query Answer briefly: the call reported for Cc1cc(Nc2ccc(OCc3ccccc3)cc2)nc2cc(O)ccc12 in this assay.
// result inactive
